This collection of values is drawn from PubChem BioAssay (NCI).

# Test system: SK-MEL-28 melanoma
# Measurement Description: NCI-60 one-dose screen, 48 h (100 = growth as untreated, 0 = no growth, -100 = all killed)
# Settings: 10 µM
The panel holds about 83,000 compounds, 20% with a hit somewhere; the sample as a whole holds those more often.
Readout: growth (%)
Write the value in % as a bare number.

CCOC(=O)CNC(=O)CN(Cc1ccccc1)C(=O)[C@@]1(C)CCC[C@]2(C)[C@H]3CC4C(C(C)C)=C[C@]3(CC[C@H]21)[C@@H]1C(=O)CCC(=O)[C@H]41
62.7
O/N=C(\CSc1nnc(-c2c[nH]c3ccccc23)n1-c1ccccc1)c1ccc(Cl)cc1
21.2

Lookup result for COc1cccc(/C=C2\N=C(C)N(CCc3ccc(S(N)(=O)=O)cc3)C2=O)c1 ; measured growth: 105

Short answer for O=C(c1ccc(Cl)cc1)C1[C@H](c2ccccc2Br)[C@@H](c2ccccc2)NC12C(=O)Nc1ccc(Cl)cc12 (some centres undefined) : growth was 55.4

====

# Tested on: UACC-257 melanoma
# Measurement Description: NCI-60 one-dose screen, 48 h (100 = growth as untreated, 0 = no growth, -100 = all killed)
# Settings: 10 µM
About 83,000 compounds went through this panel and 20% of them were active in at least one assay; those are over-represented in the sample as a whole.
Hi! Just check whether growth is below 80%. Below gives Yes, equal or above gives No.

Field: example entries. Status: answers known.
O=C(CNc1nc(-c2ccccc2)cs1)Nc1ccc([N+](=O)[O-])cc1
Yes
Nc1cc(-c2cccc(C(=O)NCc3ccc4c(c3)OCO4)c2)ccn1
No
Cc1ccc(C(=O)NNC(=O)CSc2nc3ccccc3c(=O)[nH]2)cc1
No

Is the reported growth for CN1C/C(=C\c2ccc(O)cc2O)c2[o+]c3cc(O)ccc3cc2C1 strictly below 80%?
Yes

====

# Tested on: OVCAR-5 ovarian
# Measurement Description: NCI-60 one-dose screen, 48 h (100 = growth as untreated, 0 = no growth, -100 = all killed)
# Settings: 10 µM
# Method: Growth inhibition of the OVCAR-5 human tumor cell line is measured as a screen for anti-cancer activity. Cells are grown in 96 well plates and exposed to the test compound for 48 hours. Compounds are tested at a single concentration, which is 10^-5 M for most compounds. The reported endpoint is percent growth (GI% or GIPRCNT), where numbers from 0 - 100% represent growth inhibition, and numbers from -100% - 0 represent cell death. For example, a value of 40 represents 60% growth inhibition. […]
Compounds without any hit were thinned out: in the full panel of roughly 83,000, 20% have a hit.
Documented growth across a set of compounds
Expressed in %, but write only the number.

O=c1[nH]c2ccc(Cl)cc2cc1CSc1ccc(Nc2nccc(-c3ccc4ccccc4c3)n2)cc1
95

Tested on OVCAR-5 ovarian: Cc1ccc(CSc2nc(-c3ccc(F)cc3)c(C#N)c(=O)[nH]2)cc1 . Observed growth: 99

With OVCAR-5 ovarian as the test system, O=C1Nc2cc(Cl)ccc2/C1=C/c1ccc(OCc2ccc(Br)cc2F)cc1 showed growth of 25.2

Readout growth for O=c1c2ccccc2nc(COc2ccccc2)n1/N=C/c1ccc(F)cc1 , test system OVCAR-5 ovarian, was 94.2

====

# System: UO-31 renal
# Measurement Description: NCI-60 one-dose screen, 48 h
# Settings: 10 µM
About 83,000 compounds went through this panel and 20% of them were active in at least one assay; those are over-represented in the sample as a whole. The source made the active and inactive calls. How the source made its calls: active means growth percent below 10; inactive means the rest.
// classify into TRUE = active, FALSE = inactive

Worked set:
COC(=O)C(Cc1ccc(O)c(O)c1)NC(=O)C(CSC/C=C(\C)CCCC(C)CCCC(C)CCCC(C)C)NC(C)=O (centres undefined)
FALSE
Cc1cc2nc3c4ccccc4n(CCO)c3nc2cc1C
FALSE

What call does the record list for O=C(c1ccc(Cl)cc1)C1[C@H](c2ccccc2Br)[C@@H](c2ccccc2)NC12C(=O)Nc1ccccc12 (some centres undefined) ?
FALSE

Which outcome was entered for the compound C=C(C)[C@@H]1CC[C@]2(C)[C@H](CC=C3[C@@H]4CC(C)(C)CC[C@]4(C(=O)N4CCOCC4)CC[C@]32C)[C@@]1(C)CCCN in this test?
TRUE

Could you kindly confirm the outcome this assay logged for CC(=O)c1ccc(Nc2nc(SCCC(C)C)nc(-c3ccc(F)cc3)c2C#N)cc1 ?
FALSE

Can you look up the reported call for CN1C(=O)N(C)C2SC(N/N=C/c3ccccc3F)=NC21 (centres undefined) for me?
FALSE

Please share the test call associated with O=C(NO)c1ccc(CN2CCN(c3nc(-c4ccccc4)c4ccccc4n3)CC2)cc1 .
TRUE

Would you mind telling me which call this test gave COc1cc(-c2nc3cc(Cl)c(Cl)cc3[nH]2)ccc1OCc1nnc(-c2ccc(Br)cc2)o1 ?
TRUE

Kindly provide the recorded test outcome for the following compound: CN1CCN(c2ccc(C(=O)/C=C/c3ccc(C#N)cc3)cc2)CC1
FALSE

====

# System: NCI-H522 lung
# Measurement Description: NCI-60 one-dose screen, 48 h
# Settings: 10 µM
Compounds without any hit were thinned out: in the full panel of roughly 83,000, 20% have a hit. Active and inactive are the calls of the source. How the source made its calls: active means growth percent below 10; inactive means the rest.
Assign a class; possible classes are class 1 (active), class 0 (inactive)

Check out these entries, answers already filled in.
CC(C)Sc1nc(NC2CC2)c(C#N)c(-c2ccccc2)n1
class 0
C[C@H]1[C@H](C)CC[C@]2(COC(=O)CCC(=O)NCC#CCN3CCNCC3)CC[C@]3(C)C(=CC[C@@H]4[C@@]5(C)CCCNC(C)(C)[C@@H]5CC[C@]43C)[C@H]12
class 0
COc1ccc2nc(Nc3cccc(NC(=O)c4ccc(CN5CCN(C)CC5)c(C(F)(F)F)c4)c3)ccc2c1
class 1
CCN1CCN(c2ccc(NC(=O)Nc3ccc(-c4cc(C(=O)NC)c5ncccc5n4)cc3)cc2C(F)(F)F)CC1
class 1
COc1ccc(N(C)c2cc(C#N)nc3ccccc23)cc1/C=C/C(=O)NO
class 1

Answer briefly: the call reported for CC(=O)Nc1ccc(-c2cn(-c3cccc(C(=O)Nc4cc(CN5CCOCC5)cc(C(F)(F)F)c4)c3)nn2)cn1 in this assay.
class 1

====

# Test system: TK-10 renal
# Measurement Description: NCI-60 one-dose screen, 48 h (100 = growth as untreated, 0 = no growth, -100 = all killed)
# Settings: 10 µM
The panel holds about 83,000 compounds, 20% with a hit somewhere; the sample as a whole holds those more often.
Readout: growth (%)
Enter your answer as a number in %; do not include the unit.

CC1(C)CC[C@]2(C(=O)Nc3ccccc3)CC[C@]3(C)C(=CC[C@@H]4[C@@]5(C)CC[C@H](N)C(C)(C)[C@@H]5CC[C@]43C)[C@H]2C1
107
N#Cc1ccc(-c2nn(-c3ccc(C(=O)O)cc3)cc2CNc2cc(Cl)cc(Cl)c2)cc1
111
Cc1ccc(C(=O)NNC(=O)CSc2nc3ccccc3c(=O)[nH]2)cc1
107
N#Cc1c(NC(=O)c2ccc(C(O)(C(F)(F)F)C(F)(F)F)cc2)sc2c1CCC(=O)C2
2.24
N#Cc1c(NC(=O)c2cccc(C(F)(F)F)c2)sc2c1CCC(O)=C2
63.1

Looking up Cc1ccc(-c2nc(Nc3ccc(C)c(S(N)(=O)=O)c3)c3ccccc3n2)cc1 , I see its growth listed as 120

The reported value for N#Cc1c(NC(=O)c2ccc(C(F)(F)F)cc2)sc2c1CCC(=O)C2 in terms of growth is -53.7

growth for CCOC(=O)CNC(=O)CN(Cc1ccccc1)C(=O)[C@@]1(C)CCC[C@]2(C)[C@H]3C[C@H]4C(C(C)C)=C[C@]3(CC[C@H]21)[C@@H]1C(=O)OC(=O)[C@@H]14 is 90.3

====

# Tested on: NCI-H522 lung
# Measurement Description: NCI-60 one-dose screen, 48 h
# Settings: 10 µM
This is part of a sample that, as a whole, favours compounds with a hit. Of some 83,000 tested, about 20% had one in any assay. Active and inactive are the calls of the source. Rule for the calls: active = growth percent below 10; inactive = the rest.
Field 'call' accepts T for active, F for inactive

Would you please look over these solved cases?
Cc1ccc(F)cc1N/C=c1\s/c(=C(\C#N)C(=O)Nc2ccccc2)n(-c2ccccc2)c1=O
F
O=c1c2ccccc2nc(COc2ccccc2)n1/N=C/c1ccc(N2CCOCC2)cc1
F
COc1ccc(NC(=O)CSc2nnc(-c3ccc4nc(-c5ccc(Cl)cc5)[nH]c4c3)o2)cc1
F
CC(=O)Nc1ccc(-c2cn(-c3cccc(C(=O)Nc4ccc(F)c(C(F)(F)F)c4)c3)nn2)cn1
F
COc1ccc(-c2ccc(/C=N/NC(=O)c3[nH]c4ccc(Br)cc4c3-c3ccccc3)s2)cc1
F

What did this assay record as the result for COc1ccc(CCN2C(=O)/C(=C/c3csc(C#N)n3)SC2=S)cc1OC ?
T

Tell me the assay call for O=c1c2ccccc2nc(COc2ccccc2)n1/N=C/c1ccc(N2CCCC2)cc1 please.
F

Recorded test call requested for COc1ccc(OC)c(/C=N/NC(=O)c2ccc3nc(-c4ccc(Cl)cc4)[nH]c3c2)c1
F

Test call for this compound, please: COc1ccc([C@H]2C(C(=O)c3ccc(Cl)cc3)C3(N[C@@H]2c2ccccc2)C(=O)Nc2ccc(Cl)cc23)cc1 (some centres undefined)
T
